Assign protein stability index to each entry below.
B1: ZNF207 (parent)
chain: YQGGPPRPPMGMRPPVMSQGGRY

- Variants of: B1
- assay: protein stability index of a GFP-peptide fusion (GPS, HEK-293T) (PSI 1-6); higher = more stable;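 also: lentivirally expressed fusions sorted by FACS into six bins by GFP to DsRed ratio, PSI derived from sequencing read proportions per bin multiplied by bin number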
- condition.label: c terminus: native
Give bare numbers.

Query string: Which protein stability index reading was recorded for the variant `R22H` ?
Result string: 1.91

Give protein stability index for all variants that follow.
1. G4K
2. Q2L
3. G3S
4. G11P

Result string:
2.78
2.34
1.47
1.6

Give protein stability index for all variants that follow.
1. S18R
2. P6T
3. Y1A
4. P5Q
5. P5K
6. P5E
7. P15Q

Result string:
1: 2.2; 2: 2.06; 3: 3.11; 4: 2.62; 5: 2.56; 6: 2.81; 7: 2.65

Give protein stability index for all variants that follow.
1. G3H
2. G4E
3. P9K
4. P6I

Result string:
1. 1.5
2. 2.69
3. 1.73
4. 2.49
